System: 521955-158-R2-J5-PDC complex spheroid growth;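 further: spheroids mix tumor cells with HUVEC endothelium and human MSC stroma; luminescence taken as viability surrogate after a week of drug exposure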
Test: Anticancer human tumor 521955-158-R2-J5-PDC patient-derived pancreatic carcinoma cell line growth inhibition [AhR]; active means viability on the fitted dose curve at most 10% of control; inactive means the rest
Details: second compound 0.316 µM; first compound 1 µM
Labels: Y for active, N for inactive

[
  {
    "compound": "COc1cc(C2c3cc4c(cc3C(OC3OC5COC(C)OC5C(O)C3O)C3COC(=O)C23)OCO4)cc(OC)c1O (stereo unspecified) + Cc1ccccc1N=Nc1ccc(NC(=O)c2ccnn2C)c(C)c1",
    "tgt": "521955-158-R2-J5-PDC complex spheroid growth",
    "class name": "N"
  },
  {
    "compound": "COc1cccc2c1C(=O)c1c(O)c3c(c(O)c1C2=O)CC(O)(C(=O)CO)CC3OC1CC(N)C(O)C(C)O1 (stereo unspecified) + Cc1cncc(-c2nc(NCCc3c[nH]c4ccccc34)c3ncn(C(C)C)c3n2)c1",
    "tgt": "521955-158-R2-J5-PDC complex spheroid growth",
    "class name": "Y"
  },
  {
    "compound": "COc1cc(Nc2ncc3c(n2)-c2ccc(Cl)cc2C(c2c(F)cccc2OC)=NC3)ccc1C(=O)O + Cc1ccccc1N=Nc1ccc(NC(=O)c2ccnn2C)c(C)c1",
    "tgt": "521955-158-R2-J5-PDC complex spheroid growth",
    "class name": "N"
  },
  {
    "compound": "COc1cc(Nc2ncc3c(n2)-c2ccc(Cl)cc2C(c2c(F)cccc2OC)=NC3)ccc1C(=O)O + CC(CO)NC(=O)c1cc(-c2ccc(Cl)cc2)nn(-c2cnn(C)c2)c1=O",
    "tgt": "521955-158-R2-J5-PDC complex spheroid growth",
    "class name": "N"
  },
  {
    "compound": "COc1cc(Nc2ncc3c(n2)-c2ccc(Cl)cc2C(c2c(F)cccc2OC)=NC3)ccc1C(=O)O + Cc1cncc(-c2nc(NCCc3c[nH]c4ccccc34)c3ncn(C(C)C)c3n2)c1",
    "tgt": "521955-158-R2-J5-PDC complex spheroid growth",
    "class name": "N"
  },
  {
    "compound": "CC1(C)CCC(CN2CCN(c3ccc(C(=O)NS(=O)(=O)c4ccc(NCC5CCOCC5)c([N+](=O)[O-])c4)c(Oc4cnc5[nH]ccc5c4)c3)CC2)=C(c2ccc(Cl)cc2)C1 + CC(CO)NC(=O)c1cc(-c2ccc(Cl)cc2)nn(-c2cnn(C)c2)c1=O",
    "tgt": "521955-158-R2-J5-PDC complex spheroid growth",
    "class name": "N"
  },
  {
    "compound": "NS(=O)(=O)OCC1CC(n2ccc3c(NC4CCc5ccccc54)ncnc32)CC1O (stereo unspecified) + Cc1ccccc1N=Nc1ccc(NC(=O)c2ccnn2C)c(C)c1",
    "tgt": "521955-158-R2-J5-PDC complex spheroid growth",
    "class name": "N"
  },
  {
    "compound": "NS(=O)(=O)OCC1CC(n2ccc3c(NC4CCc5ccccc54)ncnc32)CC1O (stereo unspecified) + Cc1cncc(-c2nc(NCCc3c[nH]c4ccccc34)c3ncn(C(C)C)c3n2)c1",
    "tgt": "521955-158-R2-J5-PDC complex spheroid growth",
    "class name": "N"
  },
  {
    "compound": "O=C(C=Cc1cccc(S(=O)(=O)Nc2ccccc2)c1)NO + Cc1ccccc1N=Nc1ccc(NC(=O)c2ccnn2C)c(C)c1",
    "tgt": "521955-158-R2-J5-PDC complex spheroid growth",
    "class name": "N"
  },
  {
    "compound": "CC1COCCN1c1cc(C2(S(C)(=N)=O)CC2)nc(-c2ccnc3[nH]ccc23)n1 (stereo unspecified) + Cc1ccccc1N=Nc1ccc(NC(=O)c2ccnn2C)c(C)c1",
    "tgt": "521955-158-R2-J5-PDC complex spheroid growth",
    "class name": "N"
  },
  {
    "compound": "COc1ccc([C@@H](O)c2cc(-c3ncnc4cc(N5CCOCC5)ccc34)c(F)cc2Cl)nn1 + Cc1cncc(-c2nc(NCCc3c[nH]c4ccccc34)c3ncn(C(C)C)c3n2)c1",
    "tgt": "521955-158-R2-J5-PDC complex spheroid growth",
    "class name": "N"
  }
]
